study.target: catalytic kinase (JH1) domain of human JAK1 (Homo sapiens)
Construct: 4 nM of recombinant JAK1 kinase domain is used to phosphorylate
Sequence (P23458 875-1153 limits assumed): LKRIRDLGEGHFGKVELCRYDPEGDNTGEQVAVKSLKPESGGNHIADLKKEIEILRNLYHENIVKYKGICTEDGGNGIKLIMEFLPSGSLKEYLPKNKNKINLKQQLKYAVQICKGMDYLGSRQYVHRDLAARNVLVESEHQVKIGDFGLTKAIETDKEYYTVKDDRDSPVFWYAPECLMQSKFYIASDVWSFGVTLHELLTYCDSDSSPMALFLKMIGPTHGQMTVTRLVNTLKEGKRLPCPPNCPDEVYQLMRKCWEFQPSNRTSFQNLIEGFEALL
test: ADP-Glo kinase assay, JAK1 kinase domain
Type: biochemical
conditions: 4 nM recombinant JAK1 kinase domain, 50 μM JAK3-342 peptide, 35 μM ATP, 100 minutes; read-out: JAK1 biochem IC50 (nM) Mean
Counter-ions that a name gives are not always drawn.
y if IC50 is below 500 nM. n if not; exact matches included in n.

compound: Cn1cc(-c2cc3c(N4CC5CCC(C4)N5C4CC(O)C4)ccnn3c2)cn1 (stereo not shown)
group.label: n
--
compound: Cn1cc(-c2cc3c(N4CC5CCC(C4)N5C4CC(F)(F)C4)ccnn3c2)cn1
group.label: y
--
compound: CO[C@H]1C[C@@H](N2C3CCC2CN(c2ccnn4cc(-c5cnn(C)c5)cc24)C3)C1
group.label: n
--
compound: Cn1cc(-c2cc3c(N4CC5CCC(C4)N5[C@H]4CC[C@@H]4O)ccnn3c2)cn1 (racemic)
group.label: n
--
compound: COC1CC(N2C3CCC2CN(c2ccnn4cc(-c5cnn(C)c5)cc24)C3)C1 (stereo not shown)
group.label: y
--
compound: Cn1cc(-c2nc3c(N4CC5CCC(C4)N5[C@H]4C[C@H](C#N)C4)ccnc3[nH]2)cn1
group.label: y
--
compound: Cn1cc(-c2nc3c(N4CC5CCC(C4)N5[C@H]4CC[C@@H]4O)ccnc3[nH]2)cn1 (single isomer, unassigned)
group.label: n
--
compound: Cn1cc(-c2cc3c(N4CC5CCC(C4)N5[C@H]4C[C@@H](CC#N)C4)ccnn3c2)cn1
group.label: n
--
compound: Cn1cc(-c2nc3c(N4CC5CCC(C4)N5[C@H]4C[C@@](C)(C#N)C4)ccnc3[nH]2)cn1
group.label: y
--
compound: Cn1cc(-c2cc3c(N4CC5CCC(C4)N5[C@H]4CC[C@H]4O)ccnn3c2)cn1 (racemic)
group.label: n
--
compound: Cn1cc(-c2cc3c(N4CC5CCC(C4)N5C4CC(C#N)C4)ccnc3[nH]2)cn1 (stereo not shown)
group.label: y
--
compound: Cn1cc(-c2nc3c(N4CC5CCC(C4)N5C4CNC4)ccnc3[nH]2)cn1 [Example 11, hydrochloride]
group.label: n
--
compound: COc1cc(-c2cc3c(N4CC5CCC(C4)N5C4COC4)ccnc3[nH]2)ccn1
group.label: y
--
compound: COc1cc(-c2cc3c(N4CC5CCC(C4)N5C4CC(C(F)F)C4)ccnc3[nH]2)ccn1 (stereo not shown)
group.label: y
--
compound: COc1cc(-c2cc3c(N4CC5CCC(C4)N5C4COC4)ccnn3c2)cnn1
group.label: n
--
compound: CO[C@H]1C[C@H](N2C3CCC2CN(c2ccnn4cc(-c5cnn(C)c5)cc24)C3)C1
group.label: n
--
compound: Cn1cc(-c2nc3c(N4CC5CCC(C4)N5[C@H]4CC[C@H]4O)ccnc3[nH]2)cn1 (racemic)
group.label: n
--
compound: Cn1cc(-c2cc3c(N4CC5CCC(C4)N5[C@H]4C[C@H](O)C4)ccnn3c2)cn1
group.label: n
--
compound: COC[C@]1(C#N)C[C@@H](N2C3CCC2CN(c2ccnn4cc(-c5cnn(C)c5)cc24)C3)C1
group.label: y
--
compound: Cn1cc(-c2nc3c(N4CC5CCC(C4)N5[C@H]4C[C@](C)(C#N)C4)ccnc3[nH]2)cn1
group.label: y
--
compound: Cn1cc(-c2cc3c(N4CC5CCC(C4)N5C4COC4)ccnn3c2)cn1
group.label: y
--
compound: Cc1cc(-c2cc3c(N4CC5CCC(C4)N5C4CC(C#N)C4)ccnn3c2)cnn1 (stereo not shown)
group.label: y
--
compound: Cn1cc(-c2cc3c(N4CC5CCC(C4)N5[C@H]4C[C@](C)(C#N)C4)ccnn3c2)cn1
group.label: n
--
compound: Cn1cc(-c2nc3c(N4CC5CCC(C4)N5[C@H]4C[C@@H](C#N)C4)ccnc3[nH]2)cn1
group.label: y
--
compound: Cn1cc(-c2cc3c(N4CC5CCC(C4)N5C4CC(O)(C(F)(F)F)C4)ccnn3c2)cn1 (stereo not shown)
group.label: n
--
compound: CO[C@H]1C[C@H](N2C3CCC2CN(c2ccnc4[nH]c(-c5cnn(C)c5)nc24)C3)C1
group.label: n
--
compound: Cn1cc(-c2cc3c(N4CC5CCC(C4)N5[C@H]4C[C@H](CC#N)C4)ccnn3c2)cn1
group.label: n
--
compound: COc1cc(-c2cc3c(N4CC5CCC(C4)N5C4CC(C#N)C4)ccnn3c2)cnn1 (stereo not shown)
group.label: y
--
compound: COC[C@]1(C#N)C[C@H](N2C3CCC2CN(c2ccnn4cc(-c5cnn(C)c5)cc24)C3)C1
group.label: n
--
compound: Cn1cc(-c2cc3c(N4CC5CCC(C4)N5C4(CC#N)COC4)ccnn3c2)cn1
group.label: n
--
compound: Cn1cc(-c2cc3c(N4CC5CCC(C4)N5[C@H]4C[C@@](C)(C#N)C4)ccnn3c2)cn1
group.label: y
